target: UniProtKB O00519; test: Assay Method 1: FAAH assay, 3H-anandamide hydrolysis in homogenate of T84 cells or SK-N-MC cells transfected with human FAAH
Counter-ions that a name gives are not always drawn.
With a cut-off of 90 nM, any IC50 strictly below it is called T; any IC50 meeting it or above is called F.

Could you please tell me whether IC50 recorded for CCCOc1cccc(-c2cc(NC[C@H](O)c3ccccc3)ncn2)c1 is less than 90 nM?
F

Could you please tell me whether IC50 recorded for C[C@H]([C@H](O)c1ccccc1)N(C)c1cc(-c2ccc(OC(F)(F)F)cc2)ncn1 is less than 90 nM?
F

Could you please tell me whether IC50 recorded for O[C@@H](CNc1cc(-c2ccc3c(C(F)(F)C(F)(F)F)noc3c2)ncn1)c1ccc(F)cc1 [Example 176, trifluoroacetic acid salt] is less than 90 nM?
T

Could you please tell me whether IC50 recorded for OC(CNc1cc(-c2ccccc2)ncn1)c1ccccc1 (stereo not shown) is less than 90 nM?
F

Could you please tell me whether IC50 recorded for O[C@@H](CNc1cc(-c2ccc(I)cc2)ncn1)c1ccccc1 is less than 90 nM?
T

Could you please tell me whether IC50 recorded for OC(CNc1cc(-c2ccc(C(F)(F)F)c(Cl)c2)ncn1)c1ccc(Cl)c(F)c1 (stereo not shown) [Example 133, trifluoroacetic acid salt] is less than 90 nM?
T

Could you please tell me whether IC50 recorded for OC(CNc1cc(-c2ccc(C(F)(F)F)c(Cl)c2)ncn1)c1cccc(OC(F)(F)F)c1 (stereo not shown) [Example 130, trifluoroacetic acid salt] is less than 90 nM?
F

Could you please tell me whether IC50 recorded for CC(C)Oc1ccc(-c2cc(NC[C@H](O)c3ccccc3)ncn2)cc1Cl is less than 90 nM?
T

Could you please tell me whether IC50 recorded for O[C@@H](CNc1cc(-c2cccc(C(F)(F)F)c2)ncn1)c1ccccc1 is less than 90 nM?
F

Could you please tell me whether IC50 recorded for OC(CNc1cc(-c2ccc(C(F)(F)F)c(Cl)c2)ncn1)c1ccc(N2CCCC2)cc1 (stereo not shown) is less than 90 nM?
T

Could you please tell me whether IC50 recorded for N#Cc1cc(C(O)CNc2cc(-c3ccc(C(F)(F)F)c(Cl)c3)ncn2)ccc1F (stereo not shown) is less than 90 nM?
T

Could you please tell me whether IC50 recorded for O[C@@H](CNc1cc(-c2ccc3c(C(F)(F)F)noc3c2)ncn1)c1ccc(F)cc1 [Example 177, trifluoroacetic acid salt] is less than 90 nM?
T

Could you please tell me whether IC50 recorded for OC(CNc1cc(-c2cc(C(F)(F)F)cc(C(F)(F)F)c2)ncn1)c1ccccc1 (stereo not shown) is less than 90 nM?
F

Could you please tell me whether IC50 recorded for O[C@@H](CNc1cc(-c2ccc(N3CCOCC3)nc2)ncn1)c1ccccc1 is less than 90 nM?
F

###

Exercise: state measured IC50 for each of the compounds provided.
target: UniProtKB P97612; assay: Assay Method 2: rat FAAH-1 assay, 3H-anandamide hydrolysis in homogenate of SK-N-MC cells transfected with rat FAAH
Where a name gives a salt, the structure may show the parent alone.
Express it in nM; write the number only.

# input compound: OC(CNc1cc(-c2ccc(Cl)cc2)ncn1)c1ccccc1 (stereo not shown) [Example 2] ; wanted: its IC50
1300

# input compound: CSc1cccc(-c2cc(NC[C@H](O)c3ccccc3)ncn2)c1 [Example 84, trifluoroacetic acid salt] ; wanted: its IC50
965

# input compound: COc1ccc(C(O)CNc2cc(-c3ccc(C(F)(F)F)c(Cl)c3)ncn2)cc1OC (stereo not shown) [Example 202] ; wanted: its IC50
100

# input compound: O[C@@H](CNc1cc(-c2ccc(F)c(F)c2)ncn1)c1ccccc1 [Example 59, trifluoroacetic acid salt] ; wanted: its IC50
1000

###

Exercise: state measured pIC50 for each of the compounds provided.
target: FAAH (Homo sapiens, UniProt O00519); test: Assay Method 1: FAAH assay, 3H-anandamide hydrolysis in homogenate of T84 cells or SK-N-MC cells transfected with human FAAH
Where a name gives a salt, the structure may show the parent alone.
Scale: pIC50 equals -log10([C]), with [C] in mol/L.

# input compound: COc1cc(C(O)CNc2cc(-c3ccc(OC(F)(F)F)cc3)ncn2)ccc1O (centres unmarked) ; wanted: its pIC50
6.28

# input compound: Cc1cccc(-c2cc(NCC(O)c3ccccc3)ncn2)c1 (centres unmarked) ; wanted: its pIC50
5.52

# input compound: OC(CNc1cc(-c2ccc(OC(F)(F)F)cc2)ncn1)c1ccc(C(F)(F)F)cc1 (centres unmarked) ; wanted: its pIC50
6.96

# input compound: OC(CNc1cc(-c2ccc(C(F)(F)F)c(Cl)c2)ncn1)c1ccc(F)c(Cl)c1 (centres unmarked) [Example 134, trifluoroacetic acid salt] ; wanted: its pIC50
7.57

# input compound: Cc1ccc(-c2cc(NCC(O)c3ccccc3)ncn2)cc1C (centres unmarked) ; wanted: its pIC50
6.84

# input compound: O[C@@H](CNc1ncnc(-c2ccc(C(F)(F)F)cc2)n1)c1ccccc1 [Example 103, trifluoroacetic acid salt] ; wanted: its pIC50
6.52

# input compound: CSc1ccc(-c2cc(NCC(O)c3ccccc3)ncn2)cc1 (centres unmarked) ; wanted: its pIC50
7.96

# input compound: OC(CNc1cc(-c2ccc(C(F)(F)F)c(Cl)c2)ncn1)c1ccc(C(F)(F)F)c(F)c1 (centres unmarked) ; wanted: its pIC50
7.00

###

target: Rat FAAH-1 (Rattus norvegicus); test: Assay Method 2: rat FAAH-1 assay, 3H-anandamide hydrolysis in homogenate of SK-N-MC cells transfected with rat FAAH
Sequence (P97612 whole entry): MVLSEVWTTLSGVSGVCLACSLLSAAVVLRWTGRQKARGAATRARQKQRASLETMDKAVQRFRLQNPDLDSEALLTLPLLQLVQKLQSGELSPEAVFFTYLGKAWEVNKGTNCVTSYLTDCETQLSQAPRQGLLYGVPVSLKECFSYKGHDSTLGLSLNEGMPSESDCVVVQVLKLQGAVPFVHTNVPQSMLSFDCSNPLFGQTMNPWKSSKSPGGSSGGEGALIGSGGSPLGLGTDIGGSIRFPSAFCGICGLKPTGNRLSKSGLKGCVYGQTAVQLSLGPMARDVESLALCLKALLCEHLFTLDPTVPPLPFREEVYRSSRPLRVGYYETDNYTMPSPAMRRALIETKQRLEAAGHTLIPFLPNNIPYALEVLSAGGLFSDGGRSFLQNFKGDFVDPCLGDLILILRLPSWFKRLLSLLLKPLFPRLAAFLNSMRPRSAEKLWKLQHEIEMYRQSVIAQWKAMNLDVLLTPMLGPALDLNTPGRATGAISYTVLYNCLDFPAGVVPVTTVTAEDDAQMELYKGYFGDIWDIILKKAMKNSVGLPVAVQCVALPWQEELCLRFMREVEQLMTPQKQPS
pIC50: −log10 of the molar value. Structures can show the parent of a compound that is named as a salt.
Rule: rule met for pIC50 not less than 7, rule not met for anything less.

Identify whether the reported pIC50 of the following molecule is 7 or greater: OC(CNc1cc(-c2ccsc2)ncn1)c1ccccc1 (stereo not shown)
rule not met

Identify whether the reported pIC50 of the following molecule is 7 or greater: CC(C)(C)NS(=O)(=O)c1ccc(-c2cc(NC[C@H](O)c3ccccc3)ncn2)cc1
rule not met

Identify whether the reported pIC50 of the following molecule is 7 or greater: OC(CNc1cc(-c2ccc(Cl)c(Cl)c2)ncn1)c1ccccc1 (stereo not shown)
rule not met

Identify whether the reported pIC50 of the following molecule is 7 or greater: CC(C)Sc1ccc(-c2cc(NC[C@H](O)c3ccccc3)ncn2)cc1 [Example 91, trifluoroacetic acid salt]
rule met

Identify whether the reported pIC50 of the following molecule is 7 or greater: Cc1n[nH]c2cc(-c3cc(NC[C@H](O)c4ccccc4)ncn3)ccc12 [Example 140, trifluoroacetic acid salt]
rule not met

Identify whether the reported pIC50 of the following molecule is 7 or greater: O[C@@H](CNc1cc(-c2ccc3c(C(F)(F)C(F)(F)F)noc3c2)ncn1)c1ccccc1 [Example 188, trifluoroacetic acid salt]
rule met

Identify whether the reported pIC50 of the following molecule is 7 or greater: CSc1ccc(C(O)CNc2cc(-c3ccc(C(F)(F)F)c(Cl)c3)ncn2)cc1 (stereo not shown)
rule met

Identify whether the reported pIC50 of the following molecule is 7 or greater: OC(CNc1cc(-c2ccc(C(F)(F)F)c(Cl)c2)ncn1)c1cc(C(F)(F)F)ccc1F (stereo not shown)
rule met

Identify whether the reported pIC50 of the following molecule is 7 or greater: C[C@H](Nc1cc(-c2ccc(C(F)(F)F)c(Cl)c2)ncn1)[C@H](O)c1ccccc1
rule met

Identify whether the reported pIC50 of the following molecule is 7 or greater: COc1ccc(-c2cc(NC[C@H](O)c3ccccc3)ncn2)cn1
rule not met

Identify whether the reported pIC50 of the following molecule is 7 or greater: O[C@@H](CNc1cc(-c2cc(F)c(OC(F)F)c(F)c2)ncn1)c1ccccc1 [Example 49, trifluoroacetic acid salt]
rule met

Identify whether the reported pIC50 of the following molecule is 7 or greater: OC(CNc1cc(-c2ccc(C(F)(F)F)c(Cl)c2)ncn1)c1ccc(-c2cccs2)cc1 (stereo not shown)
rule not met

Identify whether the reported pIC50 of the following molecule is 7 or greater: OC(CNc1cc(-c2ccc(C(F)(F)F)c(Cl)c2)ncn1)c1cccc(SC(F)(F)F)c1 (stereo not shown)
rule met

###

Target: FAAH (Homo sapiens, UniProt O00519)
Sequence (O00519 1-579): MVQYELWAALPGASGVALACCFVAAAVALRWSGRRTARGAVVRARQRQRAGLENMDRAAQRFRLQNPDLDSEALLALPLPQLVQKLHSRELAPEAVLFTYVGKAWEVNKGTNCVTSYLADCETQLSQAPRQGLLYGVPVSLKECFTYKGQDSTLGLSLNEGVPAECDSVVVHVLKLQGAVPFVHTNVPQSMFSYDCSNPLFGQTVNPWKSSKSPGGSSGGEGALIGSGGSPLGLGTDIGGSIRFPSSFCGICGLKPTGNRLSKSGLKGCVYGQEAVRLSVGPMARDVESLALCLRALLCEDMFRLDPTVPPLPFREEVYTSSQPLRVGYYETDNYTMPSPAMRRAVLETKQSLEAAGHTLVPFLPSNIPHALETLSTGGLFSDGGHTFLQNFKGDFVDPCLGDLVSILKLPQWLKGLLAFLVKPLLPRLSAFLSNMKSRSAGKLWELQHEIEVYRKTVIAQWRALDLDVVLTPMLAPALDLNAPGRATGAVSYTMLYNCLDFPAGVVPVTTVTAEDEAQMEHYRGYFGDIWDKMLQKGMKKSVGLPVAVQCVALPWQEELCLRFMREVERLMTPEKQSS
Assay: Assay Method 1: FAAH assay, 3H-anandamide hydrolysis in homogenate of T84 cells or SK-N-MC cells transfected with human FAAH
pIC50: −log10 of the molar value. Counter-ions that a name gives are not always drawn.
Rule: y for pIC50 not less than 7, n for anything less.

Identify whether the reported pIC50 of the following compound is 7 or greater: O[C@@H](CNc1cc(-c2ccc(OC(F)(F)F)c(Cl)c2)ncn1)c1ccc(F)cc1 [Example 175, trifluoroacetic acid salt]
y

Identify whether the reported pIC50 of the following compound is 7 or greater: Cc1c(NC[C@H](O)c2ccccc2)ncnc1-c1ccc(C(F)(F)F)c(Cl)c1 [Example 47, trifluoroacetic acid salt]
y

Identify whether the reported pIC50 of the following compound is 7 or greater: O=S(=O)(c1ccc(-c2cc(NC[C@H](O)c3ccccc3)ncn2)cc1)N1CCSCC1
n

Identify whether the reported pIC50 of the following compound is 7 or greater: N#Cc1ccc(-c2cc(NC[C@H](O)c3ccccc3)ncn2)cn1
n

Identify whether the reported pIC50 of the following compound is 7 or greater: OC(CNc1cc(-c2ccc(C(F)(F)F)c(Cl)c2)ncn1)c1nc2ccccc2s1 (centres unmarked)
n

Identify whether the reported pIC50 of the following compound is 7 or greater: OC(CNc1cc(-c2ccc(C(F)(F)F)c(Cl)c2)ncn1)c1ccc(-c2ccccn2)s1 (centres unmarked)
y

Identify whether the reported pIC50 of the following compound is 7 or greater: CSc1nc(NC[C@H](O)c2ccccc2)cc(-c2ccc(C(F)(F)F)c(F)c2)n1 [Example 102, trifluoroacetic acid salt]
y

Identify whether the reported pIC50 of the following compound is 7 or greater: O[C@@H](CNc1cc(-c2cccc(OCC(F)(F)F)c2)ncn1)c1ccccc1
n

Identify whether the reported pIC50 of the following compound is 7 or greater: COc1ccc(-c2cc(NCC(O)c3ccccc3)ncn2)cc1OC (centres unmarked)
n

Identify whether the reported pIC50 of the following compound is 7 or greater: OC(CNc1cc(-c2ccc(C(F)(F)F)c(Cl)c2)ncn1)c1cc2cc(Br)ccc2s1 (centres unmarked)
n

Identify whether the reported pIC50 of the following compound is 7 or greater: OC(CNc1cc(-c2c(F)cccc2F)ncn1)c1ccccc1 (centres unmarked)
n

Identify whether the reported pIC50 of the following compound is 7 or greater: Cn1ccc2cc(-c3cc(NC[C@H](O)c4ccccc4)ncn3)ccc21 [Example 90, trifluoroacetic acid salt]
y

Identify whether the reported pIC50 of the following compound is 7 or greater: Cc1ccc2sc(-c3cc(NC[C@H](O)c4ccccc4)ncn3)cc2c1
y

Identify whether the reported pIC50 of the following compound is 7 or greater: OC(CNc1cc(-c2ccc(C(F)(F)F)c(Cl)c2)ncn1)c1cc(C(F)(F)F)cc(C(F)(F)F)c1 (centres unmarked)
n

Identify whether the reported pIC50 of the following compound is 7 or greater: OC(CNc1cc(-c2ccc(OC(F)(F)F)cc2)ncn1)c1ccccn1 (centres unmarked)
n

Identify whether the reported pIC50 of the following compound is 7 or greater: Oc1ccc(C(O)CNc2cc(-c3ccc(OC(F)(F)F)cc3)ncn2)cc1 (centres unmarked)
n

Identify whether the reported pIC50 of the following compound is 7 or greater: OC(CNc1cc(-c2ccc(Oc3ccccc3)cc2)ncn1)c1ccccc1 (centres unmarked)
y

Identify whether the reported pIC50 of the following compound is 7 or greater: O[C@H](CNc1cc(-c2ccc(C(F)(F)F)c(Cl)c2)ncn1)c1ccc(Cl)c(F)c1
n

Identify whether the reported pIC50 of the following compound is 7 or greater: C[C@H](Nc1cc(-c2ccc(OC(F)(F)F)cc2)ncn1)[C@H](O)c1ccccc1
y

Identify whether the reported pIC50 of the following compound is 7 or greater: OC(CNc1cc(-c2ccc(C(F)(F)F)c(Cl)c2)ncn1)c1ccccc1OC(F)F (centres unmarked)
n

Identify whether the reported pIC50 of the following compound is 7 or greater: Cc1cc(-c2cc(NC[C@H](O)c3ccccc3)ncn2)cc(C)c1OC(C)C [Example 52, trifluoroacetic acid salt]
n

Identify whether the reported pIC50 of the following compound is 7 or greater: OC(CNc1cc(-c2ccc(C(F)(F)F)c(Cl)c2)ncn1)c1cc(-c2ccc(Cl)cc2Cl)no1 (centres unmarked)
n

Identify whether the reported pIC50 of the following compound is 7 or greater: OC(CNc1cc(-c2ccc(OC(F)(F)F)cc2)ncn1)c1ccc(Cl)c(Cl)c1 (centres unmarked)
y

Identify whether the reported pIC50 of the following compound is 7 or greater: CCCCOc1ccc(-c2cc(NC[C@H](O)c3ccccc3)ncn2)cc1 [Example 34, trifluoroacetic acid salt]
n

Identify whether the reported pIC50 of the following compound is 7 or greater: OC(CNc1cc(-c2ccc(C(F)(F)F)c(Cl)c2)ncn1)c1ccc(-c2cccs2)cc1 (centres unmarked)
y

Identify whether the reported pIC50 of the following compound is 7 or greater: CCCOc1ccc(-c2cc(NC[C@H](O)c3ccccc3)ncn2)cc1 [Example 44, trifluoroacetic acid salt]
y

Identify whether the reported pIC50 of the following compound is 7 or greater: OC(CNc1cc(-c2cccs2)ncn1)c1ccccc1 (centres unmarked)
n

Identify whether the reported pIC50 of the following compound is 7 or greater: CN(C)c1ccc(-c2cc(NC[C@H](O)c3ccccc3)ncn2)cn1
n
